The compounds listed here are annotated with their % inhibition of NO release.
# system_tested: inducible nitric oxide synthase (Mus musculus)
# Construct: Nitric oxide (NO) production by macrophage cells (RAW 264.7) is induced with lipopolysaccharride; endogenous in cells; host or cells: RAW 264.7 macrophage cells, LPS-induced
# method_description: Nitric oxide production by lipopolysaccharide-induced macrophage cells
# Type: cell-based
# test_context: RAW 264.7 macrophage cells induced with lipopolysaccharide; test concentration not given
Where a name gives a salt, the structure may show the parent alone.
Express the result in % but write the number alone.

Observe how each entry below is paired with its result.
{"compound": "CC(=O)NCCNC(=N)NN.Cl", "system_tested": "inducible nitric oxide synthase (Mus musculus)", "measured_metric": "% inhibition of NO release", "numeric_readout": 15}
{"compound": "CC(=O)NCCCNC(=N)NN", "system_tested": "inducible nitric oxide synthase (Mus musculus)", "measured_metric": "% inhibition of NO release", "numeric_readout": 33}
{"compound": "N=C(N)NN [Aminoguanidine hydrochloride, reference compound]", "system_tested": "inducible nitric oxide synthase (Mus musculus)", "measured_metric": "% inhibition of NO release", "numeric_readout": 44}

Consider the record given below.
What does the record list as % inhibition of NO release for Br.CC(=O)NCCNC(=N)NN ?
20

Origin of measurements: patent EP0888293B1
